The following variants are listed with their measured abundance fitness values.
B1: Syntaxin-binding protein 4, residues 493 to 538; numbered along this chain, Q6ZWJ1 (parent)
chain: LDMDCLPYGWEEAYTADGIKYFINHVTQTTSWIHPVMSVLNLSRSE

Variants of: B1
Experiment: abundance fitness (aPCA) (normalised: wild type 0, dead -1); higher = more abundant; growth selection in yeast, the domain comes from the species named
Settings: Homo sapiens

variant_annotation	abundance fitness
R44F	-0.881
Y8L	-0.367
E11A	-0.747
L6R	-0.644
I33C	0.031
Y14F	-0.659
V26L	-0.482
D2M	-0.334
E11W	-0.696
Q28E	-0.525
I19N	0.65
V26S	-0.07
S38Q	-0.697
D4R	-0.545
T15Q	-0.706
M3I	-0.425
C5D	0.321
W32M	-0.151
Y8C	-0.425
L40N	0.04
T27I	-0.814
I23S	-0.49
S43K	-0.846
L40E	0.111
T30C	-0.142
E12C	-0.496
Y8Q	-0.119
E12H	-0.795
H25Y	-0.941
F22N	-0.787
E11Y	-0.909
R44M	-0.292
G18I	-0.488
